Each item that follows carries a reported pIC50.
- TESTED TARGET: full-length NS3/NS4A-2 (HCV NS3 protease) (Hepatitis C virus genotype 1a, UniProt P27958)
- Construct: Recombinant E. coli or Baculovirus full-length NS3 was diluted to 3.33 μM with assay buffer; made in house; host or cells: E. coli or baculovirus (BV) expression system
- Sequence (P27958 1027-1657): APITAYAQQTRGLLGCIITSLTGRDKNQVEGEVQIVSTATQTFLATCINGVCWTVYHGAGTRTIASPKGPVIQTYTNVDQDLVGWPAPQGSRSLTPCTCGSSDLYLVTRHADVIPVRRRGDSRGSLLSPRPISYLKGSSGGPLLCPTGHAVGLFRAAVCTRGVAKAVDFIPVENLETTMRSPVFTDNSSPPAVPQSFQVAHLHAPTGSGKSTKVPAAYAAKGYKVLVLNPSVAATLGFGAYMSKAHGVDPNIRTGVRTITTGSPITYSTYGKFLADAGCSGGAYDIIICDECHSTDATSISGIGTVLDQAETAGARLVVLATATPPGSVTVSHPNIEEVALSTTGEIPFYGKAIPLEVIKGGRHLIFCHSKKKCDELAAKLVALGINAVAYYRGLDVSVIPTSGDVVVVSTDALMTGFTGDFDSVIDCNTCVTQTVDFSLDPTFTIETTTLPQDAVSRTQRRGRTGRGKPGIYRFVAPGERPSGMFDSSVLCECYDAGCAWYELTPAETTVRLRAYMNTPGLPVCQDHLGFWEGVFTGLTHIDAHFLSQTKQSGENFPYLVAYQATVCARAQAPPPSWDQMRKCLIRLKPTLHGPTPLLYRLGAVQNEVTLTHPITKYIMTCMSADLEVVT
- ASSAY NOTES: NS3-NS4 protease assay / NS3 inhibition assay (RETS1 substrate, fluorescence kinetic read)
- Type: biochemical
- CONDITIONS: recombinant E. coli or Baculovirus full-length NS3 with NS4A-2; read-out: NS3-NS4 IC50
pIC50: −log10 of the molar value.
VALUE TYPE: pIC50

MOLECULE: CC(C)(C)NC(=O)N[C@H]1CCCCC/C=C\[C@@H]2C[C@@]2(C(=O)O)NC(=O)C2C[C@@H](OC(=O)N3Cc4cccc(Cl)c4C3)CN2C1=O (stereo partly shown)
TESTED TARGET: full-length NS3/NS4A-2 (HCV NS3 protease) (Hepatitis C virus genotype 1a, UniProt P27958)
VALUE TYPE: pIC50
OBSERVED MEASUREMENT: > 7.00

MOLECULE: CC(C)(C)OC(=O)N[C@H]1CCCCC/C=C\[C@@H]2C[C@@]2(C(=O)NS(=O)(=O)c2ccccc2Br)NC(=O)[C@@H]2CCCN2C1=O
TESTED TARGET: full-length NS3/NS4A-2 (HCV NS3 protease) (Hepatitis C virus genotype 1a, UniProt P27958)
VALUE TYPE: pIC50
OBSERVED MEASUREMENT: > 5.00

MOLECULE: CC(C)(C)OC(=O)N[C@H]1CCCCCCC[C@@H]2C[C@@]2(C(=O)NS(=O)(=O)C2CC2)NC(=O)[C@@H]2C[C@@H](OC(=O)N3Cc4cccc(F)c4C3)CN2C1=O
TESTED TARGET: full-length NS3/NS4A-2 (HCV NS3 protease) (Hepatitis C virus genotype 1a, UniProt P27958)
VALUE TYPE: pIC50
OBSERVED MEASUREMENT: > 7.00

MOLECULE: CC(C)(C)OC(=O)N[C@H]1CCCCC/C=C\[C@@H]2C[C@@]2(C(=O)NS(=O)(=O)NCc2ccccn2)NC(=O)[C@@H]2CCCN2C1=O
TESTED TARGET: full-length NS3/NS4A-2 (HCV NS3 protease) (Hepatitis C virus genotype 1a, UniProt P27958)
VALUE TYPE: pIC50
OBSERVED MEASUREMENT: < 5.00

MOLECULE: Cc1ccc(CN[C@H]2CCCCC/C=C\[C@@H]3C[C@@]3(C(=O)NS(=O)(=O)C3CC3)NC(=O)[C@@H]3C[C@@H](OC(=O)N4Cc5cccc(F)c5C4)CN3C2=O)o1
TESTED TARGET: full-length NS3/NS4A-2 (HCV NS3 protease) (Hepatitis C virus genotype 1a, UniProt P27958)
VALUE TYPE: pIC50
OBSERVED MEASUREMENT: > 7.00

MOLECULE: CC(C)(C)OC(=O)N[C@H]1CCCCC/C=C\[C@@H]2C[C@@]2(C(=O)NCCF)NC(=O)[C@@H]2C[C@@H](OC(=O)N3Cc4cccc(F)c4C3)CN2C1=O
TESTED TARGET: full-length NS3/NS4A-2 (HCV NS3 protease) (Hepatitis C virus genotype 1a, UniProt P27958)
VALUE TYPE: pIC50
OBSERVED MEASUREMENT: > 6.00

MOLECULE: O=C(N[C@H]1CCCCC/C=C\[C@@H]2C[C@@]2(C(=O)NS(=O)(=O)N2CCC(F)(F)C2)NC(=O)[C@@H]2C[C@@H](OC(=O)N3Cc4cccc(F)c4C3)CN2C1=O)OC1CCCC1
TESTED TARGET: full-length NS3/NS4A-2 (HCV NS3 protease) (Hepatitis C virus genotype 1a, UniProt P27958)
VALUE TYPE: pIC50
OBSERVED MEASUREMENT: > 7.00

MOLECULE: Cc1sc(N[C@H]2CCCCC/C=C\[C@@H]3C[C@@]3(C(=O)NS(=O)(=O)C3CC3)NC(=O)[C@@H]3C[C@@H](OC(=O)N4Cc5cccc(F)c5C4)CN3C2=O)nc1-c1ccccc1
TESTED TARGET: full-length NS3/NS4A-2 (HCV NS3 protease) (Hepatitis C virus genotype 1a, UniProt P27958)
VALUE TYPE: pIC50
OBSERVED MEASUREMENT: > 7.00

MOLECULE: O=C(N[C@H]1CCCCC/C=C\[C@@H]2C[C@@]2(C(=O)NS(=O)(=O)N2CCC2)NC(=O)[C@@H]2C[C@@H](OC(=O)N3CCc4ccccc4C3)CN2C1=O)OC1CCCC1
TESTED TARGET: full-length NS3/NS4A-2 (HCV NS3 protease) (Hepatitis C virus genotype 1a, UniProt P27958)
VALUE TYPE: pIC50
OBSERVED MEASUREMENT: > 7.00

MOLECULE: CC(C)Nc1c(N[C@H]2CCCCC/C=C\[C@@H]3C[C@@]3(C(=O)NS(=O)(=O)C3CC3)NC(=O)[C@@H]3C[C@@H](OC(=O)N4Cc5cccc(F)c5C4)CN3C2=O)c(=O)c1=O
TESTED TARGET: full-length NS3/NS4A-2 (HCV NS3 protease) (Hepatitis C virus genotype 1a, UniProt P27958)
VALUE TYPE: pIC50
OBSERVED MEASUREMENT: > 7.00
